Value source: paper PMC7155171

Entries and their IC50 values follow.
tested on: P. falciparum Dd2 (PfLuc) line expressing firefly luciferase, asexual blood stage; assay: microbe, parasite or virus in culture; type: cell-based, Plasmodium falciparum; conditions: Plasmodium falciparum, DD2, read-out: CDD P. falciparum Luciferase ABS 11-pt Reconfirmation Dose Response (48hr): IC50 (μM); 11-pt dose response, 48hr
Lab book: enter the figure in µM, no units written.

Recorded IC50, per entry:
# COMPOUND, IC50 (µM)
records = [
    ("Fc1ccc(F)c(CN2CCC(c3cc4ncccc4cn3)CC2)c1", 1.07),
    ("CC(O)CN1CCC(CNCc2cccc(Cl)c2)CC1 (centres unmarked)", 5.96),
    ("CN[C@@H](C)C(=O)N(Cc1cccc(C)c1)Cc1ccccc1OC", 1.7),
    ("O=C(c1scc2c1OCCO2)N1CCOC(CCc2ccccc2)C1 (centres unmarked)", 1.39),
    ("Cc1cccc(Nc2cccc(C3CCCN(Cc4ncc[nH]4)C3)n2)n1 (centres unmarked)", 1.69),
    ("Cc1cccc(CN2CCCC2c2cccc(Nc3nccs3)n2)c1 (centres unmarked)", 0.914),
    ("CC(C)Nc1cc(-c2c[nH]nc2C2CCN(C(=O)C3CC3)C2)ccn1 (centres unmarked)", 5.35),
    ("CC(C)N1CCC2(CCCN(c3nccc(C(F)(F)F)n3)C2)CC1", 3.12),
    ("CCCn1ccnc1CN1CCCC1c1ccccn1 (centres unmarked)", 4.66),
    ("Cc1ccc(CNC(CN2CCN(C)CC2)c2ccccc2)cc1 (centres unmarked)", 4.31),
]

Quick note, IC50 for CN1CCN(S(=O)(=O)c2ccc(Cl)c(Cl)c2)c2cnccc21 landed at 6.77

Quick note, IC50 for CC(=O)N(c1ccc(F)cc1)c1nc(CN2CCCC2C(C)C)cs1 (centres unmarked) landed at 6.08

Quick note, IC50 for CNc1nc(C)cc(NC2CCCN(C3Cc4ccccc4C3)C2)n1 (centres unmarked) landed at 2.19

Quick note, IC50 for CN(CCO)C[C@@H]1CN(C2CCN(c3ccccc3Cl)CC2)C[C@@H]1CO landed at 0.887

Quick note, IC50 for NCC1[C@H]2CN(Cc3cccc(Cl)c3)C[C@@H]12 (some centres unmarked) landed at 2.68

Quick note, IC50 for CCOc1ccc(CN2CCCC(c3cc4ncccc4[nH]3)C2)cc1 (centres unmarked) landed at 1.07

Quick note, IC50 for COc1cccc(CNCc2ccccc2Cl)c1O landed at 7.91

###

experiment: HepG2 cytotoxicity screening (CellTiter-Glo); details: human, uninfected HepG2-A16-CD81 (EGFP) hepatocytes
Entries and their inhibition at 10 µM values follow.
Lab book: enter the figure in %, no units written.

# COMPOUND, inhibition at 10 µM [%]
rows = [
    ("CCOC(=O)N1CCN(c2nc(CCN)nc3sc(C)c(C)c23)CC1 [UCSD-0834429]", -49.3),
]

Here is another compound to look at.
Quick note, inhibition at 10 µM for CNC(=O)CCC(=O)N1CCOC(c2ccc3cc(OC)ccc3c2)C1 (centres unmarked) [UCSD-0831800] landed at 3.9

###

system: P. falciparum Dd2 (PfLuc) line expressing firefly luciferase, asexual blood stage; assay: microbe, parasite or virus in culture; format: cell-based, Plasmodium falciparum; settings: Plasmodium falciparum, DD2; 48hr, 11-point; read-out: CDD P. falciparum Luciferase ABS 11-pt Reconfirmation Dose Response (48hr): Maximum inhibition (%)
Assign T to entries whose Emax meets or exceeds 70%; assign F to the rest.

Enquiry: # check: Emax of c1cnc(N2CCC(c3csc(Nc4cnccn4)n3)CC2)nc1 is greater than or equal to 70%
Return: T

Enquiry: # check: Emax of CCCn1nccc1C(=O)N1CCN(C2CCc3ccccc3C2)CC1 (centres unmarked) is greater than or equal to 70%
Return: T

Enquiry: # check: Emax of CN(C)CCCNCCC(Cc1ccccc1)C1CCOC(C)(C)C1 (centres unmarked) is greater than or equal to 70%
Return: T

Enquiry: # check: Emax of O=C(Nc1ccc(OC2CCCC2)cc1)C1CCCN1c1nccs1 (centres unmarked) is greater than or equal to 70%
Return: F

Enquiry: # check: Emax of CN(Cc1ncc[nH]1)c1nc(-c2ccccn2)nc2c1CCNCC2 is greater than or equal to 70%
Return: F
